Hey, just so you know, these numbers are from patent US20180171001A1.

For each entry below, report its neutralization IC50 value.
- target-of-assay: Env of HIV-1 strain ZM109F.PB4 (HIV-1)
- procedure-text: cell-based or functional assay

Which value of neutralization IC50 has been reported for 8ANC195 IgG (antibody, V domains shown) VH: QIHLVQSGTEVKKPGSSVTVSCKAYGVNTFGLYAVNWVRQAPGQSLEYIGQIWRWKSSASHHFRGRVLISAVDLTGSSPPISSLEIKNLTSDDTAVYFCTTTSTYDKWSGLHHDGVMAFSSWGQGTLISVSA VL: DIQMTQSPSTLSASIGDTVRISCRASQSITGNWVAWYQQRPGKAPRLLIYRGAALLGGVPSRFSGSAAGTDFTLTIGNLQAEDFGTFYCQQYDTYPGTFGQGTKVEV in the records?
> 30 µg/mL

Which value of neutralization IC50 has been reported for γ20κ3 (antibody, V domains shown) VH: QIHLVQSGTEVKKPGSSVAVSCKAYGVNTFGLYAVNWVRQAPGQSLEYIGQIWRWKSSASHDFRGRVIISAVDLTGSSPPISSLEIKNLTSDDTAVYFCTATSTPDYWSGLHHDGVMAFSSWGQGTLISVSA VL: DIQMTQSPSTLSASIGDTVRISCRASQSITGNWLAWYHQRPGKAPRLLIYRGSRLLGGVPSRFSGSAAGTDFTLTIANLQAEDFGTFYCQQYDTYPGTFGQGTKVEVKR in the records?
> 15 µg/mL

Others:
Which value of neutralization IC50 has been reported for γ23κ5 (antibody, V domains shown) VH: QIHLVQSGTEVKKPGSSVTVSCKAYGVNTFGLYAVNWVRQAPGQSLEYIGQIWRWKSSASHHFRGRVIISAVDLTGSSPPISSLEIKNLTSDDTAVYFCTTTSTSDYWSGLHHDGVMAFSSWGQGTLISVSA VL: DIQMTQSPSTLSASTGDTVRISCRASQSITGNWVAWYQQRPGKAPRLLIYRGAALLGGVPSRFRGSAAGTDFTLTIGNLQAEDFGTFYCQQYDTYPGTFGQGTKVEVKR in the records?
> 15 µg/mL
